Recorded CC50 values for a group of molecules are listed next.
Test: cytotoxicity in mock-infected MT-4 cells (MTT)
Type: cell-based
Details: human, mock-infected MT-4 cells, 50% cytotoxic concentration; reduces absorbance of mock-infected MT-4 control by 50%; MTT

q: # input molecule: N#Cc1ccc(Nc2cc(Cc3c(Cl)cccc3Cl)nc(NCCCN3CCCC3=O)n2)cc1 ; wanted: its CC50
a: > 100 µM

q: Which CC50 value belongs to Cc1cc(C)c(Oc2ccnc(Nc3ccc(C#N)cc3)n2)c(C)c1 ?
a: > 100 µM

Please look at the following molecule next.
q: Reported CC50 for N#Cc1ccc(Nc2nc(Cc3c(Cl)cccc3Cl)cc(NC(=O)CN3CCCCC3)n2)cc1 : what is it?
a: > 100 µM

---

Listed below: CC50 values for each entry.
System: MT-4 cells (mock-infected)
Assay: cytotoxicity in mock-infected MT-4 cells (MTT)
Assay type: cell-based
Conditions: 50% cytotoxic concentration; reduces absorbance of mock-infected MT-4 control by 50%; MTT; read-out: CC50

# count of solved cases: 4
q: Value wanted: CC50 (MT-4 cells (mock-infected)) of entry Nc1cc(Cc2c(Cl)cccc2Cl)nc(Nc2ccc(Br)cc2)n1 [Compound 27]
a: > 20 µM

q: Test system MT-4 cells (mock-infected); read-out CC50; what value for Cc1c(Cc2c(Cl)cccc2Cl)nc(N)nc1Nc1ccc(C#N)cc1 [Compound 46] ?
a: > 100 µM

q: Provide the documented CC50 with MT-4 cells (mock-infected) as the system for Cc1ccc(Nc2cc(Cc3c(Cl)cccc3Cl)nc(N)n2)cc1 [Compound 36]
a: > 100 µM

q: What measured CC50 is associated with Nc1nc(Cc2c(Cl)cccc2Cl)cc(Nc2ccc(Br)cc2)n1 [Compound 28] on MT-4 cells (mock-infected)?
a: > 20 µM

Next item in the queue.
q: What CC50 appears in the records for this compound with MT-4 cells (mock-infected)? Nc1cc(Cc2c(Cl)cccc2Cl)nc(Nc2ccc(Cl)cc2)n1 [Compound 29]
a: > 20 µM
